Data provenance is paper PMC9482650.

# target: T1, DLG3_3, Q92796
# T1 sequence (Q92796 374-475, limits assumed, looked up): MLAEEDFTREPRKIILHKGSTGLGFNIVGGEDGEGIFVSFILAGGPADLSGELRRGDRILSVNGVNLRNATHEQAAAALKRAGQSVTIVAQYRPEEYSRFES
# protocolSummary: holdup assay
# Parameters: key: below the threshold = too weak to quantify, mostly under pKd 3.1 to 4
# measurementParameters: plain residues with an end cap or a label only (N-terminal biotin on a linker: ado-ado)

binder	pKd
WAKEKQHTRL [SLC17A1, Q14916]	below the threshold
KIEDVEITLV [FCHSD2, O94868]	below the threshold
VYEVPVETKF [SLC26A3, P40879]	below the threshold
PKSNSSKEYV [CLDN7, O95471]	below the threshold
VKQYADVEGF [HNRNPK, P61978;P61978-2]	below the threshold
FHSIKQSTAV [CRHR1, P34998]	4.4
ATKDKKITTV [EXOC4, Q96A65]	4.56
QLKSGRDSTV [TMEM178A, Q8NBL3]	3.66
